biological target: Hypoxia inducible factors; HIF-1-alpha, HIF-2-alpha (Homo sapiens, UniProt Q16665+Q99814); experiment: Inhibition of hypoxia-induced HIF1 activation in human LN229 cells expressing HRE-AP reporter gene assessed as HRE remaining activity at 10 uM preincubated for 1 hr under normoxia condition followed by 24 hrs incubation under hypoxia condition by alkaline phosphatase reporter assay relative to control; type: cell-based
Consider the following compounds and their measured Activity readings.

| compound | Activity (%) |
| --- | --- |
| CC1(C)C=Cc2cc(CN(C(=O)c3ccc(Br)cc3)c3ccccc3)ccc2O1 | 57.6 |
| COc1c(CN(C(=O)c2cccs2)c2ccccc2)ccc2c1OC(C)(C)C=C2 | 61.8 |
| CC1(C)C=Cc2cc(/C=N/O)ccc2O1 | 91.4 |
| COc1c(CN(c2ccccc2)S(=O)(=O)c2ccc([N+](=O)[O-])cc2)ccc2c1OC(C)(C)C=C2 | 72.4 |
| COc1c(CN(Cc2ccccc2)S(=O)(=O)c2cc(Cl)ccc2Cl)ccc2c1OC(C)(C)C=C2 | 35 |
| Cc1ccc(S(=O)(=O)N(Cc2ccc3c(c2)C=CC(C)(C)O3)C(C)C)cc1 | 55 |
| COc1ccc(S(=O)(=O)N(Cc2ccc3c(c2)C=CC(C)(C)O3)c2ccccc2)cc1OC | 28.9 |
| CC1(C)C=Cc2cc(C(c3ccccc3)n3cnc4cc(Cl)ccc43)ccc2O1 (stereo unspecified) | 87.9 |
| COc1c(CN(c2ccccc2)S(=O)(=O)c2ccc(C)cc2)ccc2c1OC(C)(C)C=C2 | 58.4 |
| COc1ccc(S(=O)(=O)N(Cc2ccccc2)Cc2ccc3c(c2OC)OC(C)(C)C=C3)cc1OC | 68.5 |
| COc1c(CN(C(=O)c2ccc(Br)cc2)c2ccccc2)ccc2c1OC(C)(C)C=C2 | 63.2 |
| CC(C)N(Cc1ccc2c(c1)C=CC(C)(C)O2)S(=O)(=O)c1cc(Cl)ccc1Cl | 41.9 |
| CC(O)c1ccc2c(c1)C=CC(C)(C)O2 (stereo unspecified) | 94.9 |
| CC(C)N(Cc1ccc2c(c1)C=CC(C)(C)O2)C(=O)c1ccc(Br)cc1 | 63.9 |
| COc1ccc(S(=O)(=O)N(Cc2ccc3c(c2)C=CC(C)(C)O3)C(C)C)cc1OC | 64.7 |
| COc1c(C(C)n2cnc3cc(Cl)ccc32)ccc2c1C=CC(C)(C)O2 (stereo unspecified) | 55.7 |
| CC1(C)C=Cc2cc(C(O)c3cn(CCOc4ccc5ccc(=O)oc5c4)nn3)ccc2O1 (stereo unspecified) | 117 |
| CC(=O)N(Cc1ccc2c(c1)C=CC(C)(C)O2)c1ccccc1 | 91.5 |
| COc1c(CN(Cc2ccccc2)C(C)=O)ccc2c1OC(C)(C)C=C2 | 93.1 |
| COc1c(C(C(C)C)n2cnc3ncccc32)ccc2c1C=CC(C)(C)O2 (stereo unspecified) | 88.8 |
| CC1(C)C=Cc2cc(CN(C(=O)c3cccs3)c3ccccc3)ccc2O1 | 79.1 |

* * *

target: Hypoxia inducible factors; HIF-1-alpha, HIF-2-alpha (Homo sapiens, UniProt Q16665+Q99814); assay: Inhibition of hypoxia-induced HIF1 activation in human LN229 cells expressing HRE-AP reporter gene at 5 uM preincubated for 1 hr under normoxia condition followed by 24 hrs incubation under hypoxia condition by HRE-luciferase reporter assay relative to control; values are per cent of control

| structure_string | target_entity | residual activity, % |
| --- | --- | --- |
| CC1(C)C=Cc2cc(CN(Cc3ccccc3)S(=O)(=O)c3ccc(Br)cc3OC(F)(F)F)ccc2O1 | Hypoxia inducible factors; HIF-1-alpha, HIF-2-alpha (Homo sapiens, UniProt Q16665+Q99814) | 2 |
| COc1ccc(Cl)cc1S(=O)(=O)N(Cc1ccc2c(c1)C=CC(C)(C)O2)CC(C)C | Hypoxia inducible factors; HIF-1-alpha, HIF-2-alpha (Homo sapiens, UniProt Q16665+Q99814) | 90 |
| CC1(C)C=Cc2cc(CN(Cc3ccccc3)S(=O)(=O)c3ccc([N+](=O)[O-])cc3)ccc2O1 | Hypoxia inducible factors; HIF-1-alpha, HIF-2-alpha (Homo sapiens, UniProt Q16665+Q99814) | 35 |
| COc1ccc(S(=O)(=O)N(Cc2ccc3c(c2)C=CC(C)(C)O3)C2CCCCC2)cc1OC | Hypoxia inducible factors; HIF-1-alpha, HIF-2-alpha (Homo sapiens, UniProt Q16665+Q99814) | 17 |
| CC1(C)C=Cc2cc(CN(c3ccccc3)S(=O)(=O)c3cccc4ccccc34)ccc2O1 | Hypoxia inducible factors; HIF-1-alpha, HIF-2-alpha (Homo sapiens, UniProt Q16665+Q99814) | 75 |
| COc1ccc(S(=O)(=O)N(Cc2ccccc2)Cc2ccc3c(c2)C=CC(C)(C)O3)c(OC)c1 | Hypoxia inducible factors; HIF-1-alpha, HIF-2-alpha (Homo sapiens, UniProt Q16665+Q99814) | 54 |
| CC1(C)C=Cc2cc(CN(C3CCCCC3)S(=O)(=O)c3cccc4ccccc34)ccc2O1 | Hypoxia inducible factors; HIF-1-alpha, HIF-2-alpha (Homo sapiens, UniProt Q16665+Q99814) | 37 |
| CC1(C)C=Cc2cc(CN(C3CCCCC3)S(=O)(=O)c3ccc([N+](=O)[O-])cc3)ccc2O1 | Hypoxia inducible factors; HIF-1-alpha, HIF-2-alpha (Homo sapiens, UniProt Q16665+Q99814) | 53 |
| COc1ccc(Cl)cc1S(=O)(=O)N(Cc1ccccc1)Cc1ccc2c(c1)C=CC(C)(C)O2 | Hypoxia inducible factors; HIF-1-alpha, HIF-2-alpha (Homo sapiens, UniProt Q16665+Q99814) | 78 |
| CC(C)CN(Cc1ccc2c(c1)C=CC(C)(C)O2)S(=O)(=O)c1ccc(Oc2c(Cl)cccc2[N+](=O)[O-])cc1 | Hypoxia inducible factors; HIF-1-alpha, HIF-2-alpha (Homo sapiens, UniProt Q16665+Q99814) | 23 |
| CC1(C)C=Cc2cc(CN(C3CCCCC3)S(=O)(=O)c3ccc(Br)cc3OC(F)(F)F)ccc2O1 | Hypoxia inducible factors; HIF-1-alpha, HIF-2-alpha (Homo sapiens, UniProt Q16665+Q99814) | 75 |
| COc1ccc(S(=O)(=O)N(Cc2ccc3c(c2)C=CC(C)(C)O3)C2CCCCC2)c(OC)c1 | Hypoxia inducible factors; HIF-1-alpha, HIF-2-alpha (Homo sapiens, UniProt Q16665+Q99814) | 5 |
| COc1ccc(S(=O)(=O)N(Cc2ccc3c(c2)C=CC(C)(C)O3)CC(C)C)cc1OC | Hypoxia inducible factors; HIF-1-alpha, HIF-2-alpha (Homo sapiens, UniProt Q16665+Q99814) | 6 |
| CC(C)CN(Cc1ccc2c(c1)C=CC(C)(C)O2)S(=O)(=O)c1cc(Cl)ccc1Cl | Hypoxia inducible factors; HIF-1-alpha, HIF-2-alpha (Homo sapiens, UniProt Q16665+Q99814) | 5 |
| CC1(C)C=Cc2cc(CN(C3CCCCC3)S(=O)(=O)c3cc(Cl)ccc3Cl)ccc2O1 | Hypoxia inducible factors; HIF-1-alpha, HIF-2-alpha (Homo sapiens, UniProt Q16665+Q99814) | 60 |
| CC(C)CN(Cc1ccc2c(c1)C=CC(C)(C)O2)S(=O)(=O)c1ccc(Br)cc1OC(F)(F)F | Hypoxia inducible factors; HIF-1-alpha, HIF-2-alpha (Homo sapiens, UniProt Q16665+Q99814) | 57 |
| CC1(C)C=Cc2cc(CN(C3CCCCC3)S(=O)(=O)c3ccc(Oc4c(Cl)cccc4[N+](=O)[O-])cc3)ccc2O1 | Hypoxia inducible factors; HIF-1-alpha, HIF-2-alpha (Homo sapiens, UniProt Q16665+Q99814) | 49 |
| COc1ccc(S(=O)(=O)N(Cc2ccc3c(c2)C=CC(C)(C)O3)c2ccccc2)cc1OC | Hypoxia inducible factors; HIF-1-alpha, HIF-2-alpha (Homo sapiens, UniProt Q16665+Q99814) | 2 |
| CC(C)CN(Cc1ccc2c(c1)C=CC(C)(C)O2)S(=O)(=O)c1cccc2ccccc12 | Hypoxia inducible factors; HIF-1-alpha, HIF-2-alpha (Homo sapiens, UniProt Q16665+Q99814) | 4 |
| CC1(C)C=Cc2cc(CN(Cc3ccccc3)S(=O)(=O)c3ccc(Oc4c(Cl)cccc4[N+](=O)[O-])cc3)ccc2O1 | Hypoxia inducible factors; HIF-1-alpha, HIF-2-alpha (Homo sapiens, UniProt Q16665+Q99814) | 51 |
| CC1(C)C=Cc2cc(CN(c3ccccc3)S(=O)(=O)c3ccc([N+](=O)[O-])cc3)ccc2O1 | Hypoxia inducible factors; HIF-1-alpha, HIF-2-alpha (Homo sapiens, UniProt Q16665+Q99814) | 66 |
| COc1ccc(S(=O)(=O)N(Cc2ccccc2)Cc2ccc3c(c2)C=CC(C)(C)O3)cc1OC | Hypoxia inducible factors; HIF-1-alpha, HIF-2-alpha (Homo sapiens, UniProt Q16665+Q99814) | 26 |
| COc1ccc(Cl)cc1S(=O)(=O)N(Cc1ccc2c(c1)C=CC(C)(C)O2)c1ccccc1 | Hypoxia inducible factors; HIF-1-alpha, HIF-2-alpha (Homo sapiens, UniProt Q16665+Q99814) | 56 |
| CC1(C)C=Cc2cc(CN(c3ccccc3)S(=O)(=O)c3ccc(Oc4c(Cl)cccc4[N+](=O)[O-])cc3)ccc2O1 | Hypoxia inducible factors; HIF-1-alpha, HIF-2-alpha (Homo sapiens, UniProt Q16665+Q99814) | 21 |
| CC1(C)C=Cc2cc(CN(c3ccccc3)S(=O)(=O)c3cc(Cl)ccc3Cl)ccc2O1 | Hypoxia inducible factors; HIF-1-alpha, HIF-2-alpha (Homo sapiens, UniProt Q16665+Q99814) | 51 |
| COc1ccc(S(=O)(=O)N(Cc2ccc3c(c2)C=CC(C)(C)O3)c2ccccc2)c(OC)c1 | Hypoxia inducible factors; HIF-1-alpha, HIF-2-alpha (Homo sapiens, UniProt Q16665+Q99814) | 61 |
| CC1(C)C=Cc2cc(CN(c3ccccc3)S(=O)(=O)c3ccc(Br)cc3OC(F)(F)F)ccc2O1 | Hypoxia inducible factors; HIF-1-alpha, HIF-2-alpha (Homo sapiens, UniProt Q16665+Q99814) | 56 |
| CC(C)CN(Cc1ccc2c(c1)C=CC(C)(C)O2)S(=O)(=O)c1ccc([N+](=O)[O-])cc1 | Hypoxia inducible factors; HIF-1-alpha, HIF-2-alpha (Homo sapiens, UniProt Q16665+Q99814) | 3 |
